FYI, the data here is from a melting point compilation (Tetko et al.; mined from patent text by program, amines drawn as free bases though some values may be those of a salt).

In this section, each of the molecules is paired with its reported melting point.

// worked examples, melting point included
| molecule | melting point |
| --- | --- |
| CCc1cnc2c(NC(=O)c3c(Cl)cccc3Cl)cccc2c1CCO | 180 to 182 °C |
| Cc1ccc(NC(=O)c2ccc(/C=C/C(=O)NO)s2)cc1Nc1nc(-c2cccnc2)cs1 | 242 °C |
| CNC(=O)c1ccc(N2CCN(Cc3cc4c(c(C5CC5)c3)OC(C)C(=O)N4)CC2)cc1 (centres undefined) | 256 to 259 °C |

Query molecule follows.
q: // lookup melting point for Cc1cc(C)c2cccc(OCc3c(Cl)ccc(S(=O)(=O)N4CCC[C@H]4C(=O)NCCCNC(=O)c4ccc(C=NN)cc4)c3Cl)c2n1
a: 178 to 180 °C

---

molecules and their reported melting point

q: I am curious: what melting point value has been reported for O=C(OCc1ccnc2ccccc12)ON1C(=O)CCC1=O ?
a: 94 °C

q: Form field: reported melting point of COc1cc(C(C)=O)ccc1OCCCN1CCN(c2n[nH]c3cc(F)ccc23)CC1
a: 135 to 137 °C

q: Look up melting point for this molecule: O=C1Nc2ccccc2Oc2c1csc2Cl
a: 224 to 227 °C

q: Which melting point is listed for Cc1cc2c(s1)Oc1ccc(F)cc1NC2=O ?
a: 274 to 275 °C

---

Reported melting point values follow for various compounds

| compound | melting point |
| --- | --- |
| NC(=O)c1sc2nc(N3CCC(NCC(O)c4cc5ccccc5cn4)CC3)cc(C(F)(F)F)c2c1N (configuration not stated) | 169 to 172 °C |
| CCc1cc(CC)n2nccc2n1 | 43 to 44 °C |
| CN(C)C(=O)c1cc2c(nc(C(F)(F)F)n2C)c2c1CCC(c1ccccc1)O2 (configuration not stated) | 223 to 225 °C |

q: Fill in: melting point of COc1ccc2[nH]cc(C=C3OC(=O)N(Cc4cc(C(F)(F)F)cc(C(F)(F)F)c4)C3=O)c2c1 is ___
a: 147 to 149 °C

q: What value of melting point has been reported for the following compound? O=C(Nc1cn(C2CCCCO2)nc1C(=O)NCCCO)c1ccccn1 (configuration not stated)
a: 139 to 140 °C

q: melting point lookup needed for Cc1cc(F)ccc1-c1cc(N2CCS(=O)(=O)CC2)ncc1N(C)C(=O)C(C)(C)c1cc(C(F)(F)F)cc(C(F)(F)F)c1 , thanks.
a: 135 to 138 °C

q: Look at this compound and give its reported melting point. CC(C)(C)NC(=O)N1CCN(Cc2ccccc2)C[C@@H]1C(=O)N(CCCn1ccnc1)Cc1ccccc1
a: 57.8 °C

q: Can you look up the measured melting point of COCCc1nc2c(N)nc3ccccc3c2n1CCCCCCCCNC(=O)c1ccccc1 for me?
a: 133 to 138 °C

q: # lookup: melting point of CCOC(=O)CCC1(NC(=O)c2ccc3ccccc3c2)C(=O)N(c2ccccc2)c2cc(OCC)ccc21 (configuration not stated)
a: 195 to 196 °C

q: Consider the compound Cc1cc(Br)cnc1CCCCNC1=NS(=O)(=O)N=C1N and give its measured melting point.
a: 219 to 220 °C

q: I would be grateful if you could share the reported melting point for COc1cc(C=O)ccc1OCc1cn(-c2ccccn2)nc1C .
a: 141 to 142 °C

q: Would you kindly share the measured melting point for CS(=O)(=O)c1ccc(-c2cc(C(F)(F)F)nn2-c2ccc(OC(F)(F)F)cc2)cc1F ?
a: 110 to 112 °C

---

recorded-metric: melting point

Consider the following illustrative entries.
| record-smiles | melting point |
| --- | --- |
| Cc1nc(CCCCCn2cnc3c2c(=O)n(C)c(=O)n3C)no1 | 160 to 162 °C |
| CCC(=O)Nc1cc(C(C)(C)C)[nH]n1 | 228 to 229 °C |

Consider the record given below.
q: Give its melting point value. Item: N#Cc1ccc(N2CCC(=O)CC2)cc1
a: 100 to 101 °C

---

Overview of reported melting point across a group of compounds:

Below are worked cases with known answers.
| compound | result |
| --- | --- |
| COc1ccc(F)c(CC2CCN([C@H]3CC[C@H](c4ccc5c(c4)OCO5)CC3)CC2)c1 | 89 to 91 °C |
| O=C1CCCCC1c1cccnc1 (centres undefined) | 78 to 80 °C |
| CC(=O)c1cnc(O)c(Cl)c1 | 188 to 189 °C |
| O=C(NC1CC1)c1nc(-c2ccccc2)c(-c2ccc(=O)[nH]n2)s1 | > 250 °C |

q: Which melting point value belongs to O=C1N(Cc2noc(C3CC3)n2)c2ccccc2C12COc1cc3c(cc12)OCO3 (centres undefined) ?
a: 136 to 137 °C

q: Entry under review: CCCc1nc(C#N)c(N)n1CC(C)C . Reported melting point?
a: 135 to 136 °C

q: Entry under review: CCCOc1ccc2c(c1)C(c1ccccc1OCCC)C(C(=O)O)C2c1ccc2c(c1)OCO2 (centres undefined) . Reported melting point?
a: 179 to 180 °C

q: Entry CC(Cc1ccccc1)C1CC=C2C3=C(CCC21C)C1(C)CCC(O)CC1CC3 (centres undefined) has what melting point?
a: 156 to 157 °C

q: Tell me the measured melting point of Cc1ccc(C)c2c(=O)n(CCCN3CC=C(c4ccc(Cl)cc4)CC3)c(=O)[nH]c12 , please.
a: 212 to 220 °C

q: Could you share which melting point value was measured for CCc1ccc(-c2nn(C)c(=O)c3ccccc23)c(CC)c1 ?
a: 94.5 to 96.5 °C

---

Parameter: melting point. Scope: all listed entries.

q: Suppose we examine the compound Cc1cc(I)ccc1NC1=CC2=NCN(C)C2=CC1(F)C(=O)NN (stereo unspecified) ; what melting point value has been reported?
a: 232 to 234 °C

---

recorded-metric: melting point

The cases that follow already have their melting point on record.
| compound | result |
| --- | --- |
| CCOC(=O)c1nnc2ccc(NC(=O)OCc3ccccc3)cc2c1O | 250 to 252 °C |
| CC(=O)Oc1ccc(C(=O)Cl)cc1 | 167 °C |

q: Consider the compound shown here: O=C1CCCCN1S(=O)(=O)c1ccc(N2CCCCCCC2)cc1 What is its recorded melting point?
a: 150 to 152 °C

q: Recorded melting point of COc1ccc(C(=O)C2Cc3cc(OC)ccc3C2=O)cc1 (stereo unspecified) , please.
a: 160 to 162 °C

q: Look up melting point: O=C1NCC(Cc2ccccc2C(F)(F)F)O1 (stereo unspecified)
a: 142 to 143 °C

q: Which measured melting point value corresponds to O=C(CNC(=O)OCc1ccc([N+](=O)[O-])cc1)Nc1ccc(C(=O)OCI)cc1 ?
a: 162 to 164 °C

q: Quick one: melting point of CC(C)(C)OC(=O)N1C(=O)CCC1c1ccc(F)cc1 (stereo unspecified) ?
a: 117 °C

---

List of melting point values.

| compound | melting point |
| --- | --- |
| CNC1CN(c2c(F)cc3c(=O)c(C(=O)O)cn(C4CC4)c3c2F)C1 | 270 to 272 °C |
| CN(C)CCNc1cc(Cl)nc(-c2ccccc2)n1 | 140 to 145 °C |

q: Which melting point is listed for Cc1cccc(-c2nc3cccnn3c2-c2ccnc(NCCN3CCCCC3)c2)c1 ?
a: 143 to 144 °C

q: Which value of melting point has been reported for Cc1cccc(NC(=O)NC2N=C(C(C)C)c3cccc(C)c3N(CC(=O)N3CCCCCCC3)C2=O)c1 (centres undefined) in the records?
a: 132 to 133 °C

---

recorded-metric: melting point

Reference set (10 entries):
| molecule | result |
| --- | --- |
| C#CCOC(=O)c1cc(Br)c(O)c(OC)c1 | 121 to 122 °C |
| Cc1c(CC#N)cc(C(C)(C)C)c(O)c1C | 126 to 128 °C |
| NC(=O)N(O)CCn1cc(Sc2ccccc2)c2ccccc21 | 95 to 99 °C |
| CC(=O)SCCCCCCCCCCCOCCOCCOCCOc1ccc(OCc2ccccc2)cc1 | 55 to 57 °C |
| CCNC(=O)N=C(NC(=O)Nc1ccccc1C)SC | 152 to 153 °C |
| Cc1oc(CCOc2ccc(CC3SC(=N)NC3=O)cc2)nc1CC(C)C (stereo not given) | 167 to 168 °C |
| Cc1c(N2CCC(n3cccc3)CC2)c(F)cn2c(=O)c(C(=O)O)cc(C3CC3)c12 | 268 to 269 °C |
| COc1cc(C(C)=O)ccc1OCCCN1CCC(c2noc3ccccc23)CC1 | 102 to 104 °C |
| COC(=O)Nc1cc(O)c(Cl)cc1F | 140 to 141 °C |
| c1ccc(-c2ccc3c(ccc4c5ccccc5[nH]c34)c2)cc1 | 254 °C |

q: Dear colleague, I am looking for the recorded melting point of the following molecule: C[C@@H]1CCCN1CCc1ccc2cc(Br)ccc2n1
a: 49 to 50 °C

q: Record request: melting point value, item Cc1noc(NS(=O)(=O)c2ccccc2-c2ccc(-c3ncco3)cc2CN2OCC(C)(C)C2=O)c1C
a: 95 to 100 °C

q: What does the record list as melting point for COc1cc2nc(N3CCN(c4nc5ccccc5s4)CC3)nc(N)c2cc1OC ?
a: 242 to 245 °C

q: Name the reported melting point value associated with the molecule S=C(Nc1ccc(Cl)cc1)NC1C2CC3C(C2)C31 (stereo not given)
a: 164 to 166 °C

q: Can you share its melting point? I mean this molecule: O=C(CNC1CCCCC1)Nc1ccc([N+](=O)[O-])cc1
a: 123 to 125 °C

q: Query (molecule): CCN(CC)C(=O)n1ccc(Sc2ccc(Br)cc2Cl)n1 ; field requested: melting point
a: 77 to 79 °C

q: Name the recorded melting point for Fc1ccc(-n2c3c(c4cc(F)ccc42)CNCC3)cc1 .
a: 126 to 129 °C

q: // lookup melting point for COc1ccccc1Cn1c(=O)c2c(N3CCN(C)CC3)cc(Cl)cc2n(Cc2ccccc2)c1=O
a: 91 to 96 °C

q: Reported melting point for CC(C)c1nc(CCN(C)C(=O)N[C@H](C(=O)N[C@@H](Cc2ccccc2)C[C@H](O)[C@H](Cc2ccccc2)NC(=O)OCc2cncs2)C(C)C)cs1 : what is it?
a: 62 to 63 °C

q: Item under review: CCCOc1ccc(F)c2c(=O)c3ccccc3sc12 . Reported melting point?
a: 125 to 127 °C

q: Which melting point is listed for COc1nc(C2CC2)nc(C(Cl)(Cl)Cl)n1 ?
a: 49 to 51 °C

q: GET /values?readout=melting point&item= CC(C)S(=O)(=O)c1cccc(OS(C)(=O)=O)n1
a: 70.5 to 71.5 °C

q: Returns the measured melting point for the input molecule. Input: COc1cc(OC)c(-c2nncn2CC(C)C)cc1C=CC(=O)c1ccc(S(N)(=O)=O)cc1
a: > 240 °C

q: Fill in the blank: the reported melting point of CCN(c1cc(C(=O)OC)c(O)c2ncc(Cc3ccc(F)cc3)cc12)S(C)(=O)=O is ____.
a: 149 to 150 °C

q: # input molecule: CCCCc1oc2ccccc2c1C(=O)NCc1ccc2c(Br)c(O)ccc2c1 ; wanted: its melting point
a: 192 to 193 °C
